# test system: T1, mouse TMEM106B (mouse, UniProt Q80X71 2-275)
# T1 construct: transiently expressed on HEK293 cells, or native on mouse Neuro2a cells; also called moTMEM106B; murine TMEM106B
# method description: FACS Neuro2a;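 further: flow cytometry of antibody binding to cells: hybridoma supernatant or purified antibody at 10 µg/ml, 1 h on ice, secondary detection, propidium iodide–positive dead cells gated out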
Recorded measurements of MFI, one per entry
Answer in MFI, number only, no unit symbol.

// solved cases for MFI follow
| binder | readout | unit of measure | observed measurement |
| --- | --- | --- | --- |
| TM-28 (antibody, V domains shown) VH: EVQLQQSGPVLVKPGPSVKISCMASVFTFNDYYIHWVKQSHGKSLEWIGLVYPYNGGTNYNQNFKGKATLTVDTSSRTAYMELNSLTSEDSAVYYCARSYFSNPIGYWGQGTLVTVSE VL: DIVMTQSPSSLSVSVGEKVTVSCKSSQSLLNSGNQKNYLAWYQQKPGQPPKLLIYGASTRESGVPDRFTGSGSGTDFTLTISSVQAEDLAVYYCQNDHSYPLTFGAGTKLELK | MFI | MFI | 2740 |
| TM-17 (antibody, V domains shown) VH: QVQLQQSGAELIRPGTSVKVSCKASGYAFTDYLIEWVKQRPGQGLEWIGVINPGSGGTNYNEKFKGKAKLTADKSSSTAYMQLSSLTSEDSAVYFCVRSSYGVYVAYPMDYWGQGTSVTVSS VL: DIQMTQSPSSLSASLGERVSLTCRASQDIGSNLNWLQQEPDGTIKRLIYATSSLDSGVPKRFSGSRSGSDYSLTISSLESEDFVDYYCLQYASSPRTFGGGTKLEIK | MFI | MFI | 385 |
| TM-23 (antibody, V domains shown) VH: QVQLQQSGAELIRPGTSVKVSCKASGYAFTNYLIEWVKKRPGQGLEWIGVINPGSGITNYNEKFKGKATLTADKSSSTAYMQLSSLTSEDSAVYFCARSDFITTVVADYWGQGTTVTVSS VL: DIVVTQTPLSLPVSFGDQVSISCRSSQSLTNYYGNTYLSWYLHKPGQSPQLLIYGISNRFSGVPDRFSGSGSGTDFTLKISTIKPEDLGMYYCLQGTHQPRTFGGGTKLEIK | MFI | MFI | 333 |
| TM-29 (antibody, V domains shown) VH: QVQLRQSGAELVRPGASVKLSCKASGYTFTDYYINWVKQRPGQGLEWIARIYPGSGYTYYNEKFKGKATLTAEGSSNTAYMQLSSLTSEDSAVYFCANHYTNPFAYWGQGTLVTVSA VL: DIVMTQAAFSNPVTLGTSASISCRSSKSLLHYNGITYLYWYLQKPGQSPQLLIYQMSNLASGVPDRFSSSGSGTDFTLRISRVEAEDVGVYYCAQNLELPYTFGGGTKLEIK | MFI | MFI | 1480 |
| TM-35 (antibody, V domains shown) VH: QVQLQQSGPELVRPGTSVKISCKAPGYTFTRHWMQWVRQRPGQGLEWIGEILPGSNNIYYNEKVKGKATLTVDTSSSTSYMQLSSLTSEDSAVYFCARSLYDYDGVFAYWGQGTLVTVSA VL: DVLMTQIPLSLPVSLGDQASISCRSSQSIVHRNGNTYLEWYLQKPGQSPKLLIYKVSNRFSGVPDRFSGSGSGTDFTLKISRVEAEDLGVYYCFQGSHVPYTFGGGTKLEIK | MFI | MFI | 181 |
| TM-7 (antibody, V domains shown) VH: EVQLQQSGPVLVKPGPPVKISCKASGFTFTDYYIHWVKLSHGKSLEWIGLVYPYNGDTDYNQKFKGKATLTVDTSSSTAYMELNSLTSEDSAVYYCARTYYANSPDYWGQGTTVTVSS VL: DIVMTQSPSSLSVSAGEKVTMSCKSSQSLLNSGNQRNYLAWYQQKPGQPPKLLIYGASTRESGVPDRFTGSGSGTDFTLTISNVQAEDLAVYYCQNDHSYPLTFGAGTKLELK | MFI | MFI | 1200 |

In: Quick one: MFI for TM-48 (antibody, V domains shown) VH: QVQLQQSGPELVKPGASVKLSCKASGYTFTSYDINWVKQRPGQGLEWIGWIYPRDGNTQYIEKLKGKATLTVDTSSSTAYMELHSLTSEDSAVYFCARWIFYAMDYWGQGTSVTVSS VL: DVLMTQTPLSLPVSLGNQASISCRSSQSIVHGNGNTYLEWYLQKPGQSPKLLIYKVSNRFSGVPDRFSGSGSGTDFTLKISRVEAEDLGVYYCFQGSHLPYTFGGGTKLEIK ?
Out: 292

In: Quick one: MFI for TM-14 (antibody, V domains shown, mouse IgG (hybridoma)) VH: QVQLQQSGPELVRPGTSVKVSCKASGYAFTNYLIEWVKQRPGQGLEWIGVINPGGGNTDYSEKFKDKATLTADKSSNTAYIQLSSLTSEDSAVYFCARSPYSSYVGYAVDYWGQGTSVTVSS VL: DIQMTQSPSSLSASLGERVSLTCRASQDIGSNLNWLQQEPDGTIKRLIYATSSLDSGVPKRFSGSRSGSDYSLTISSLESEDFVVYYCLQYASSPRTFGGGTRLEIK ?
Out: 300

In: Quick one: MFI for TM-49 (antibody, V domains shown, mouse IgG (hybridoma)) VH: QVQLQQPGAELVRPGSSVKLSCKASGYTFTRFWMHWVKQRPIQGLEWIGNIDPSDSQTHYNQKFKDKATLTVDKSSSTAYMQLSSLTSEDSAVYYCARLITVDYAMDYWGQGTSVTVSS VL: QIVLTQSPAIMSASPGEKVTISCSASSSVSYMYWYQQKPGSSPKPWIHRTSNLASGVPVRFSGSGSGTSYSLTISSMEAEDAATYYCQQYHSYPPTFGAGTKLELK ?
Out: 291

In: Quick one: MFI for TM-31 (antibody, V domains shown, mouse IgG (hybridoma)) VH: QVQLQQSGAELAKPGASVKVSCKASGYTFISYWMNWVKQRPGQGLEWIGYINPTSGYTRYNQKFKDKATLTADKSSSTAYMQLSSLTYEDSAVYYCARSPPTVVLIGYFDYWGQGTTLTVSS VL: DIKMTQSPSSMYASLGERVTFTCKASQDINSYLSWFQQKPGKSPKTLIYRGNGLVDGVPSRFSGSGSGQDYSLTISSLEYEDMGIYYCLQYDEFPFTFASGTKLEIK ?
Out: 325
